Settings: 303.15 K; 101.33 kPa; Liquid; Pycnometric method
± gives the expanded uncertainty stated by the source.
property: mass density

{"columns": ["molecule", "result"],
 "data": [
  ["CCCCCC[n+]1ccccc1.O=S(=O)([N-]S(=O)(=O)C(F)(F)F)C(F)(F)F [1-hexylpyridinium bis(trifluromethylsulfonyl)imide]", "1379 ± 25 kg/m3"],
  ["CC[n+]1ccccc1.O=S(=O)([N-]S(=O)(=O)C(F)(F)F)C(F)(F)F [1-ethylpyridinium bis[(trifluoromethyl)sulfonyl]imide]", "1530 ± 25 kg/m3"],
  ["CCCC[n+]1cccc(C)c1.O=S(=O)([O-])C(F)(F)F [1-butyl-3-methylpyridinium trifluoromethanesulfonate]", "1291 ± 25 kg/m3"],
  ["CCCC[n+]1ccccc1C.O=S(=O)([N-]S(=O)(=O)C(F)(F)F)C(F)(F)F", "1459 ± 25 kg/m3"],
  ["CCCC[n+]1ccc(C)cc1.O=S(=O)([N-]S(=O)(=O)C(F)(F)F)C(F)(F)F", "1412 ± 25 kg/m3"],
  ["CCCC[n+]1ccccc1.O=S(=O)([N-]S(=O)(=O)C(F)(F)F)C(F)(F)F [1-butylpyridinium bis[(trifluoromethyl)sulfonyl]imide]", "1445 ± 25 kg/m3"],
  ["CCCC[n+]1cccc(C)c1.F[B-](F)(F)F [1-butyl-3-methylpyridinium tetrafluoroborate]", "1172 ± 25 kg/m3"],
  ["CCCC[n+]1cccc(C)c1.O=S(=O)([N-]S(=O)(=O)C(F)(F)F)C(F)(F)F", "1423 ± 25 kg/m3"]
]}

###

Conditions: 308.15 K; 101.33 kPa; Liquid; Capillary tube (Ostwald / Ubbelohde) method
In this section, each of the molecules is paired with its reported viscosity.

{"columns": ["molecule", "viscosity / mPa·s"],
 "data": [
  ["CCCC[n+]1ccc(C)cc1.O=S(=O)([N-]S(=O)(=O)C(F)(F)F)C(F)(F)F", 36.12],
  ["CCCC[n+]1cccc(C)c1.O=S(=O)([N-]S(=O)(=O)C(F)(F)F)C(F)(F)F", 41.73],
  ["CC[n+]1ccccc1.O=S(=O)([N-]S(=O)(=O)C(F)(F)F)C(F)(F)F [1-ethylpyridinium bis[(trifluoromethyl)sulfonyl]imide]", 27.8],
  ["CCCCCC[n+]1ccccc1.O=S(=O)([N-]S(=O)(=O)C(F)(F)F)C(F)(F)F [1-hexylpyridinium bis(trifluromethylsulfonyl)imide]", 153.24]
]}

###

Conditions: 303.15 K, Ring tensiometer
property: surface tension liquid-gas (mN/m)

{"columns": ["compound", "measure unit", "quantitative result"],
 "data": [
  ["CCCC[n+]1ccccc1.O=S(=O)([N-]S(=O)(=O)C(F)(F)F)C(F)(F)F [1-butylpyridinium bis[(trifluoromethyl)sulfonyl]imide]", "mN/m", 34.5],
  ["CCCCCC[n+]1ccccc1.O=S(=O)([N-]S(=O)(=O)C(F)(F)F)C(F)(F)F [1-hexylpyridinium bis(trifluromethylsulfonyl)imide]", "mN/m", 33.5],
  ["CCCC[n+]1ccccc1C.O=S(=O)([N-]S(=O)(=O)C(F)(F)F)C(F)(F)F", "mN/m", 36.1],
  ["CCCC[n+]1ccc(C)cc1.O=S(=O)([N-]S(=O)(=O)C(F)(F)F)C(F)(F)F", "mN/m", 34.7]
]}
